Data provenance is PubChem BioAssay (NCI).

# PROTOCOL TEXT: NCI Yeast Anticancer Drug Screen. Data for the mec2-1 strain (AID 157)
# ASSAY CONTEXT: S. cerevisiae mec2-1 strain, at 50.0 µM, hits give high values
Compounds without any hit were thinned out: in the full panel of roughly 79,000, 15% have a hit.
So basically: growth inhibition at 70% or higher? That is Condition met. Lower than 70%? That is Condition not met.

> print(dat)
                                    molecule        group.label
 1  CCOC(=O)C1c2[nH]c3ccccc3c2CCN1C(=O)c1ccc(OC)o1 (stereo unspecified)      Condition met
 2        C/C(=N/NC(=S)Nc1ccc(C)cc1)c1ccccn1      Condition met
 3  CCOC(=O)C(Br)C(Br)c1cccc(Cl)c1 (stereo unspecified)      Condition met
 4  O=C1OC(c2ccccc2)=N/C1=C\c1ccc(Oc2ccc(Cl)c(Cl)c2)cc1  Condition not met
 5  COc1cccc(/C=C(\NC(=O)c2ccccc2)c2nc3ccccc3s2)c1      Condition met
 6  CC(=O)c1ccc2c(c1)CC1(C2)Cc2ccccc2C1=O (stereo unspecified)  Condition not met
 7         CCN(C(C)=O)c1ccc2c(c1)Cc1ccccc1-2      Condition met
 8  CCCCCCCCCc1c(O)c(O)c(CCCCCCCCC)c(CCCCCCCCC)c1CCCCCCCCC  Condition not met
 9              O/N=C(/CCc1ccccc1Cl)c1ccccc1      Condition met
10  Cc1cc(N(CCOS(C)(=O)=O)CCOS(C)(=O)=O)ccc1C=Nc1cc(Br)c(O)c(Br)c1      Condition met
11         O=C(/C=C\c1ccc(Cl)c(Cl)c1)c1cccs1  Condition not met

---

Overview of reported growth inhibition across a group of compounds:
# PROTOCOL TEXT: NCI Yeast Anticancer Drug Screen. Data for the mlh1 rad18 strain (AID 175)
# ASSAY CONTEXT: S. cerevisiae mlh1 rad18 strain growth inhibition; at 5.0 µM (retest, dose inferred, filed as 0.5); hits give high values
# Procedure: Growth inhibition of yeast strains with defined genetic alterations is measured as a screen for potential anti-cancer activity. Selected strains with alterations in DNA damage repair or cell cycle control were exposed to compounds and growth inhibition was measured relative to vehicle treated controls. The strain used in this assay is mlh1 rad18
This is part of a sample that, as a whole, favours compounds with a hit. Of some 79,000 tested, about 15% had one in any assay.
VALUE KIND: growth inhibition (%)

> print(dat)
                                    compound         value.kind  reported.result
 1    Cc1ccc2ccc3c(CCN(C)C)cc4c(c3c2c1O)OCO4  growth inhibition               -5
 2  CCCCCCCCCCC(O)CN1CCN(c2cccc(Cl)c2)CC1 (stereo not given)  growth inhibition               99
 3             Cc1ccc(Cc2n[nH]c(=O)[nH]2)cc1  growth inhibition               45
 4      CCC(=O)[O][Bi]([c]1ccccc1)[c]1ccccc1  growth inhibition               85
 5         CCN(C(C)=O)c1ccc2c(c1)Cc1ccccc1-2  growth inhibition              -10
 6  CC1([N+](=O)[O-])C(=O)C2(N3CCCCC3)CCCC2C1c1ccccc1 (stereo not given)  growth inhibition                1
 7                CC(C)CCOC(=O)Nc1cccc(Cl)c1  growth inhibition                4
 8  O=[N+]([O-])c1ccc2c(Nc3ccccc3-c3ccccc3Nc3c4ccccc4nc4cc([N+](=O)[O-])ccc34)c3ccccc3nc2c1  growth inhibition               38
 9         O=[N+]([O-])c1ccc(O)c(C2CCCCC2)c1  growth inhibition               87
10     COc1cccc(-c2cc(=O)c3c(C)ccnc3[nH]2)c1  growth inhibition               14
11  O=C(CN1CCCCC1)c1ccc(/C=C/c2ccc(Cl)cc2)cc1  growth inhibition               21
12             CCCCCCCCNS(=O)(=O)c1ccc(N)cc1  growth inhibition                6
13               Cc1nc2[nH]cc(C)c2c(=O)[nH]1  growth inhibition              -10
14      Cc1cc(=O)c2c(ccc3cc4ccccc4cc32)[nH]1  growth inhibition               14
15       O=S(=O)(c1cc(Br)ccc1O)c1cc(Br)ccc1O  growth inhibition               98
16     COc1ccc(/C(C#N)=C(/N)SCc2ccccc2Cl)cc1  growth inhibition               -1
17         CCCCCCCSCc1nc2ccccc2c(C)[n+]1[O-]  growth inhibition                3
18  CCC(C(c1ccc(Cl)cc1)c1ccc(Cl)c(Cl)c1)[N+](=O)[O-] (stereo not given)  growth inhibition                1
19           CC(C)(C)/C=N/NS(=O)(=O)c1ccccc1  growth inhibition             -100
20  CC(=O)OC1CCC(C(C)(C)C)C(C)C1 (stereo not given)  growth inhibition                3
21  O=C1/C(=C/c2ccc([N+](=O)[O-])cc2)Sc2scc(-c3cccc([N+](=O)[O-])c3)[n+]21  growth inhibition               51
22   CCOC(=O)C(=N\Nc1ccccc1C)/C(C)=N\NC(N)=S  growth inhibition               18
23    NC(=Nc1ccccc1)SCc1ccc([N+](=O)[O-])cc1  growth inhibition               43
24                   Nc1nnc(Cc2ccc(Br)cc2)o1  growth inhibition              -12
25                CCCCCCCC/C(C=O)=C\c1ccccc1  growth inhibition               -3

---

# PROTOCOL TEXT: NCI Yeast Anticancer Drug Screen. Data for the cln2 rad14 strain (AID 165);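 note: 0% = growth equal to vehicle treated cultures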
# ASSAY CONTEXT: S. cerevisiae cln2 rad14 strain, at 50.0 µM, hits give high values
This is part of a sample that, as a whole, favours compounds with a hit. Of some 79,000 tested, about 15% had one in any assay.
VALUE KIND: growth inhibition (%)

> print(dat)
                                    compound  reported.result
 1                  CCCn1cc2c(SC)nc(SC)nc2n1             87.3
 2  CCOC(=O)CN1CCC(C(=O)CC2(O)C3(Cl)C4(Cl)C5(Cl)C(Cl)(Cl)C6(Cl)C4(Cl)C2(Cl)C6(Cl)C53Cl)CC1 (stereo unspecified)             98.5
 3  CCOC(=O)/C(=C\c1ccc([N+](=O)[O-])cc1)C(C)=O             87.1
 4   Oc1ccc(C(=C(Br)c2ccccc2)c2ccc(O)cc2)cc1             89.5
 5  OC(CC(O)(C(F)(F)Cl)C(F)(F)Cl)c1ccccc1 (stereo unspecified)             85.8
 6                             COc1ccc(S)cc1             69.5
 7  CC12CCC(=O)C=C1C=CC1C2CCC2(C)C1CCC21CCC(=O)O1 (stereo unspecified)             24.1
 8  Clc1ncccc1-n1cccc1/C=N\N=C/c1cccn1-c1cccnc1Cl             30.4
 9  N#CSCN1C(=O)C2CC=CCC2C1=O (stereo unspecified)             49.5
10  COc1ccc(/C(=N/NC(N)=O)C(c2ccc(OC)cc2)C2C(=O)Oc3ccccc32)cc1 (stereo unspecified)             88.8
11          O=C(CSSCC(=O)Nc1ccccc1)Nc1ccccc1             48.2

---

# PROTOCOL TEXT: NCI Yeast Anticancer Drug Screen. Data for the mec2-1 strain (AID 157)
# ASSAY CONTEXT: S. cerevisiae mec2-1 strain, at 50.0 µM (retest, dose inferred, filed as 5.0), hits give high values
About 79,000 compounds went through this panel and 15% of them were active in at least one assay; those are over-represented in the sample as a whole.
Overview of reported growth inhibition across a group of compounds:
VALUE KIND: growth inhibition (%)

> print(dat)
                                    compound  reported.result
 1  CCOC(=O)C1CC2(CCC1N)c1ccccc1-c1ccccc12 (stereo not drawn)                8
 2  Cc1cccc2c1C1c3c(C)cccc3C(O)CC1CC2O (stereo not drawn)               -4
 3            Cc1c2ccccc2cc2c1ccc1cccc(F)c12               95
 4           CCCCCCCCN1C(=O)c2ccccc2S1(=O)=O               96
 5                 COc1ccc(-c2csc(C)n2)cc1OC                4
 6  COC1/C=C/OC2(C)Oc3c(C)c(O)c4c5c(cc(O)c4c3C2=O)N=C(O5)/C(C)=C\C=C\C(C)C(O)C(C)C(O)C(C)C(OC(C)=O)C1C (stereo not drawn)               99
 7  COc1ccc(C(C)=O)c(OC(=O)c2ccccc2)c1OC(=O)c1ccccc1                7
 8  CCCC(=O)C1=C(O)C(Cc2c(O)c(C)c(O)c(C(=O)CCC)c2O)=C(O)C(C)(C)C1=O               34
 9  O=C1CSC(c2ccc(Cl)cc2)N1c1ccc(-c2ccc(-n3c(-c4ccccc4)nc4ccccc4c3=O)cc2)cc1 (stereo not drawn)               63
10         COc1cc(NCCCCCNC2CCCCC2)c2ncccc2c1               17
11  Cc1cc(N)c2cc(NC(=O)Nc3ccc4nc(C)cc(N)c4c3)ccc2n1               99
12               C/C(=N\NC(=S)N(C)C)c1cccnn1               99
13  Cc1sc(N=Nc2c(O)[nH]c3ccccc23)nc1-c1ccccc1               27
14                  CSC(=S)N/N=C/c1cccc(C)n1               60
15  CS(=O)(=O)OCCN(CCOS(C)(=O)=O)c1ccc(C=Nc2ccc(-c3cnc(-c4ccc(Cl)cc4)s3)cc2)c(Cl)c1               91
16    ClC1(Cl)C(Cl)(Cl)C12c1ccccc1-c1ccccc12               97
17      CN(C)c1ccc(/C=C/c2ccnc3ccccc23)cc1Cl               97
18  CSC(=S)SC(SC)S(C)(=O)=O (stereo not drawn)               -3
19         O=C1CSC(=Nc2ccc(F)cc2F)N1Cc1cccs1               98
20    O=[N+]([O-])c1ccccc1OS(=O)(=O)c1ccccc1               -8
21         CCCCCCCSCc1nc2ccccc2c(C)[n+]1[O-]               98
22  CCCCCCCCCCCCS(=O)(=O)CC(Br)C(=O)c1ccco1 (stereo not drawn)               97
23               COc1cc(CC#N)c(NC(C)=O)cc1OC               -3
